Ref: patent US20080269240A1

biological target: UniProt Q9NYK1; assay: Human TLR7 reporter assay (NF-kB-SEAP) in HEK293 cells; settings: HEK293 cells stably introduced with human TLR7 plasmid and NF-kB-SEAP reporter plasmid; cultured 20 hours with compound (1 nM-10 μM); absorbance 405 nm; read-out: Human TLR7 binding activity (EC50)
Sequence (Q9NYK1 27-1049): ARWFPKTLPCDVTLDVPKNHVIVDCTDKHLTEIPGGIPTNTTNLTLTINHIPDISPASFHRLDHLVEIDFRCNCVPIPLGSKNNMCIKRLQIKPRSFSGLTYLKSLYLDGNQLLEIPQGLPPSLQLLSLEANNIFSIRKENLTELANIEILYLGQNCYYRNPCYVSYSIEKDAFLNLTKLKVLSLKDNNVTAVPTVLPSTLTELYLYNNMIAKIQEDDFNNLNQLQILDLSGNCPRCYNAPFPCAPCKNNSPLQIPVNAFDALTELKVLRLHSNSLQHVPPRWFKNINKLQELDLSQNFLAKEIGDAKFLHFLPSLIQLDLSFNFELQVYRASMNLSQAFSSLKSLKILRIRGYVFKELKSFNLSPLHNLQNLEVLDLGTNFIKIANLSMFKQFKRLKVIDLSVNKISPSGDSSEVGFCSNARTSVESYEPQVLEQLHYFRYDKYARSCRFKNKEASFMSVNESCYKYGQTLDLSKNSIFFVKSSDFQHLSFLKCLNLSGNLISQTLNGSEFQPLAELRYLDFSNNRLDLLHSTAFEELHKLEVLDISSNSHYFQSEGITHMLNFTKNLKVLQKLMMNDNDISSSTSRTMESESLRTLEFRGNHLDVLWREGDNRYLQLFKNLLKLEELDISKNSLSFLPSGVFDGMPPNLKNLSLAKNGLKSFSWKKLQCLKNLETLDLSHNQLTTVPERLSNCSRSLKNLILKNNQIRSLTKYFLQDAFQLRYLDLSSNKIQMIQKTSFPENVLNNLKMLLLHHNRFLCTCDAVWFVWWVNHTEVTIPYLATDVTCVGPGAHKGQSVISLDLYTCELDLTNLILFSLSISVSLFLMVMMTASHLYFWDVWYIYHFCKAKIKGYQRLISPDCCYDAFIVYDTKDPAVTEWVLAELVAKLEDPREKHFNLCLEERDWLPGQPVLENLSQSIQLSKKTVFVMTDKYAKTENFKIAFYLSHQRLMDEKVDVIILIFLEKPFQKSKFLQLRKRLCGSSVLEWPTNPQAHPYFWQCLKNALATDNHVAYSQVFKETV
pEC50: −log10 of the molar value.
Classify by measured pEC50: 1 (yes) if it is equal to or exceeds 6, 0 (no) if it is smaller.

CCCCOc1nc(N)c2[nH]c(=O)n(CCCCCCCN3CCN(CCOc4cccc(CC(=O)OC)c4)CC3)c2n1    1 (yes)
COCCOc1nc(N)c2[nH]c(=O)n(CC3CCN(CC(=O)N(C)CCOc4cccc(CC(=O)OC)c4)CC3)c2n1    0 (no)
CCCCOc1nc(N)c2[nH]c(=O)n(CCC3CCN(CCOc4cccc(CC(=O)OC)c4)CC3)c2n1    1 (yes)
CCCCOc1nc(N)c2[nH]c(=O)n(CC3CCN(CCCN(C)Cc4cccc(CC(=O)OC)c4)CC3)c2n1    0 (no)
CCCCOc1nc(N)c2[nH]c(=O)n(CC3CCN(CCCNCc4cccc(CC(=O)OC)c4)CC3)c2n1    0 (no)

Then this compound:
INPUT: Answer whether pEC50 of CCCCOc1nc(N)c2[nH]c(=O)n(CCCCCCCN3CCN(CCN(C)Cc4cccc(CC(=O)OC)c4)CC3)c2n1 is greater than or equal to 6.
OUTPUT: 1 (yes)
